TARGET: human VWF (human)
Sequence (P04275 whole entry): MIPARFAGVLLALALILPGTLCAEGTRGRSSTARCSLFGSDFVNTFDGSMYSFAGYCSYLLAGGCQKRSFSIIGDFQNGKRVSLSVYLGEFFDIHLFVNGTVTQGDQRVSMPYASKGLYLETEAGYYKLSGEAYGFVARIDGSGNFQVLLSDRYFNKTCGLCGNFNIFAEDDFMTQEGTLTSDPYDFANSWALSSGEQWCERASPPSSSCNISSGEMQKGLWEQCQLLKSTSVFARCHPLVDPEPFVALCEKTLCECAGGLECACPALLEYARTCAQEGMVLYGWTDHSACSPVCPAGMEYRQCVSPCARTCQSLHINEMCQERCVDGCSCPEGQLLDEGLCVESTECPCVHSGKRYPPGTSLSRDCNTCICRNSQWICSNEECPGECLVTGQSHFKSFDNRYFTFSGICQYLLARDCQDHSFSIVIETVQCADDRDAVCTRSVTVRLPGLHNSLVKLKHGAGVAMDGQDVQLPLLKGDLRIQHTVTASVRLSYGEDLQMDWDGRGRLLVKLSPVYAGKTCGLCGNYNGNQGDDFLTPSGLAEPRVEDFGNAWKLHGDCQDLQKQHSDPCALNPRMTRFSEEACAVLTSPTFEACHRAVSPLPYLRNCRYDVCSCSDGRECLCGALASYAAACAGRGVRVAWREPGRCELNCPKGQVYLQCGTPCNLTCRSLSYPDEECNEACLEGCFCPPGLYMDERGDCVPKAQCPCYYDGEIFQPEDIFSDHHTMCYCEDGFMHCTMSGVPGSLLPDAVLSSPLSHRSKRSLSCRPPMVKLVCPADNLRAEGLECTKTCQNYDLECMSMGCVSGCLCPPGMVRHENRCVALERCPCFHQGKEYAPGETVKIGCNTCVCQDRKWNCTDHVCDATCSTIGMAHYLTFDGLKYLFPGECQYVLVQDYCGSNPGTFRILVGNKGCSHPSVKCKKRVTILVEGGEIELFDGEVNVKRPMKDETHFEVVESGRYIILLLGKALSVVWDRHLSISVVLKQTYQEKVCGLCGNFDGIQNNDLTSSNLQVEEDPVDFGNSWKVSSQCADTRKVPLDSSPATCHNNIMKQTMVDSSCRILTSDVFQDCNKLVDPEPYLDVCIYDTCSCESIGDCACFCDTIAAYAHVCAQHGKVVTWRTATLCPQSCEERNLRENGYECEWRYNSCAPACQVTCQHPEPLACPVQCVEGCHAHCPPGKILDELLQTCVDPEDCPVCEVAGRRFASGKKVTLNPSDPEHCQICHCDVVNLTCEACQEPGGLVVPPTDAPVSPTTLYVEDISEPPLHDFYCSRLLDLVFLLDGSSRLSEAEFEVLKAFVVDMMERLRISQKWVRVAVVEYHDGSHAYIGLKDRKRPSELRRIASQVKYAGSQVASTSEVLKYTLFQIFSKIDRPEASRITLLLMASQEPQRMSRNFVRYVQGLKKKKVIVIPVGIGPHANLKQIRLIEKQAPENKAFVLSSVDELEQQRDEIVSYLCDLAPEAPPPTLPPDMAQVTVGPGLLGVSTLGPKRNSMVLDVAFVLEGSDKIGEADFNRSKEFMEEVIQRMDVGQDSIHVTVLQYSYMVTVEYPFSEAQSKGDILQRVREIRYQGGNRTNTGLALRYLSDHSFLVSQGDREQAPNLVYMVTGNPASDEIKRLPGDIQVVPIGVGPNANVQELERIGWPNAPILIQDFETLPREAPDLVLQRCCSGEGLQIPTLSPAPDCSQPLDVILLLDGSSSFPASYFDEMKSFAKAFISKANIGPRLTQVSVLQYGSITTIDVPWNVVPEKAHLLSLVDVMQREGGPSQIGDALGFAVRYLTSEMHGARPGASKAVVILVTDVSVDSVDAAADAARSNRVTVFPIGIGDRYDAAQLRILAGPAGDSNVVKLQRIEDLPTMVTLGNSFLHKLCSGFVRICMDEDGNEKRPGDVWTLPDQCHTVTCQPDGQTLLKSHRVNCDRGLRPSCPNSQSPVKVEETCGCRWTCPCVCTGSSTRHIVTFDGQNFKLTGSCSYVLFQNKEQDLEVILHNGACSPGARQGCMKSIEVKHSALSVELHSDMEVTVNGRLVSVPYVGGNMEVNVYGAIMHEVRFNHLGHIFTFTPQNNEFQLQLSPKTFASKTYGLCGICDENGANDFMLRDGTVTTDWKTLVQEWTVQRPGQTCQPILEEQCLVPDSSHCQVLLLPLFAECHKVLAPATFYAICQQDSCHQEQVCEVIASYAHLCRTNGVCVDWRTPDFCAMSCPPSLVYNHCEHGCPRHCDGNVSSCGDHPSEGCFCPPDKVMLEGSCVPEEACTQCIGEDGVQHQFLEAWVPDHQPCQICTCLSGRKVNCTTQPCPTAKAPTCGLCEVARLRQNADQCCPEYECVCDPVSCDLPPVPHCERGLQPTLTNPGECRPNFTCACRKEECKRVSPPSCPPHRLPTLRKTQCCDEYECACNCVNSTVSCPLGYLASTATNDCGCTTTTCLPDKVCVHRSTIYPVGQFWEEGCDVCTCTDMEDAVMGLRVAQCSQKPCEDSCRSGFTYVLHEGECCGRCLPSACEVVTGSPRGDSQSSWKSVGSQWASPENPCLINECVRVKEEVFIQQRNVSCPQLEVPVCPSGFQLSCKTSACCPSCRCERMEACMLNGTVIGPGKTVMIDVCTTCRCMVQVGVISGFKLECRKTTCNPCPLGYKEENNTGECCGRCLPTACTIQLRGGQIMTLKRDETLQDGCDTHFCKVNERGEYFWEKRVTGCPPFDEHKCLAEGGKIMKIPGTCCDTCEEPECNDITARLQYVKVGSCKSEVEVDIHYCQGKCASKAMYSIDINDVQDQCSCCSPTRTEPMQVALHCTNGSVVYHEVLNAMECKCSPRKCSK
PROTOCOL TEXT: ELISA
PROPERTY NAME: EC50

BINDER: 25B05_H4-L4 (antibody, V domains shown) VH: EVQLVQSGAEVKKPGASVKVSCKASGYTFTDYFMNWVRQAPGQRLEWMGVINPHNGGTSYSQKFQGRVTLTVDKSSSTAYMELSSLRSEDTAVYYCARRPLGSDYWGQGTTVTVSS VL: DIVMTQSPSSVSASVGDRVTITCKASQNVGTAVAWYQQKPGKAPKLLIYSASSRYTEVPDRFSGSGSGTDFTLTISSLQPEDFATYYCQQYSSYPLTFGQGTKLEIK
PROPERTY NAME: EC50
MEASURED RESULT: 0.0264 µg/mL

QUERY: What value of EC50 has been recorded for this entry: 33D03_H4-L2 (antibody, V domains shown) VH: QVQLVQSGAEVKKPGASVKVSCKASGYTFTDYYLNWVRQAPGQRLEWMGIINPYNGGTNYNQRFKGRVTITVDKSSSTAYMELSSLRSEDTAVYYCASEGLRTWFTYWGQGTLVTVSS VL: DIVMTQSPDSLAVSLGERATISCKSSQSLSNSGNQKIYLAWYQQKPGQPPKLLIYGASSRESGVPDRFSGSGSGTDFTLTISSLQAEDVAVYYCQNDHSHPFTFGQGTKLEIK
RESULT: 0.0354 µg/mL
